Target: RGS8 (Homo sapiens (Human))
Sequence (P57771 other isoform, or with tags, fused parts or gaps): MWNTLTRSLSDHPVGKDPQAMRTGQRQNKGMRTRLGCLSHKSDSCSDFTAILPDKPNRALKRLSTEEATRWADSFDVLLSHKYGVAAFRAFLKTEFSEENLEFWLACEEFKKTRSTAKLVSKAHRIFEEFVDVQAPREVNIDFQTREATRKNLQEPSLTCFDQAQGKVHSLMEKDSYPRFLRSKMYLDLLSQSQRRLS
Assay: FCPIA: Gαo binding to RGS8
Conditions: Table 6, FCPIA; read-out: RGS8 IC50
Text: FCPIA Dose Response and Reversibility Experiments:
Field: label. Allowed values: criterion met (IC50 < 50 µM) or criterion not met (IC50 >= 50 µM).

Ask: Field: below-cutoff. Rule: recorded IC50 strictly less than 50 µM. Subject: `CC(C)(C)c1ccc(Cn2c(=O)sn(-c3ccccc3)c2=O)cc1`
Result: criterion not met

Ask: Field: below-cutoff. Rule: recorded IC50 strictly less than 50 µM. Subject: `O=c1sn(-c2ccccc2)c(=O)n1Cc1ccc(Cl)cc1`
Result: criterion met

Ask: Field: below-cutoff. Rule: recorded IC50 strictly less than 50 µM. Subject: `COc1ccc(-n2sc(=O)n(Cc3ccc(C)cc3)c2=O)cc1`
Result: criterion met

Ask: Field: below-cutoff. Rule: recorded IC50 strictly less than 50 µM. Subject: `CCCCn1c(=O)sn(CC)c1=O`
Result: criterion not met

Ask: Field: below-cutoff. Rule: recorded IC50 strictly less than 50 µM. Subject: `Cc1ccc(Cn2sc(=O)n(Cc3ccc(Cl)cc3)c2=O)cc1`
Result: criterion not met

Ask: Field: below-cutoff. Rule: recorded IC50 strictly less than 50 µM. Subject: `Cc1ccc(Cn2c(=O)sn(-c3ccc(Cl)c(Cl)c3)c2=O)cc1`
Result: criterion not met

Ask: Field: below-cutoff. Rule: recorded IC50 strictly less than 50 µM. Subject: `CCCCn1sc(=O)n(CC(C)C)c1=O`
Result: criterion not met

Ask: Field: below-cutoff. Rule: recorded IC50 strictly less than 50 µM. Subject: `Cc1ccc(Cn2c(=O)sn(-c3ccccc3)c2=O)cc1`
Result: criterion met

Ask: Field: below-cutoff. Rule: recorded IC50 strictly less than 50 µM. Subject: `Cn1c(=O)sn(C(C)(C)C)c1=O`
Result: criterion not met

Ask: Field: below-cutoff. Rule: recorded IC50 strictly less than 50 µM. Subject: `O=c1sn(-c2ccccc2)c(=O)n1Cc1cccc(Cl)c1`
Result: criterion met

Ask: Field: below-cutoff. Rule: recorded IC50 strictly less than 50 µM. Subject: `COc1ccc(-n2sc(=O)n(Cc3ccc(Cl)cc3)c2=O)cc1`
Result: criterion met

Ask: Field: below-cutoff. Rule: recorded IC50 strictly less than 50 µM. Subject: `O=c1sn(-c2cccc(Cl)c2)c(=O)n1Cc1ccccc1`
Result: criterion met

Ask: Field: below-cutoff. Rule: recorded IC50 strictly less than 50 µM. Subject: `COc1ccc(Cn2c(=O)sn(-c3ccc(Cl)cc3)c2=O)cc1`
Result: criterion met

Ask: Field: below-cutoff. Rule: recorded IC50 strictly less than 50 µM. Subject: `Cc1cccc(Cn2c(=O)sn(-c3ccccc3)c2=O)c1`
Result: criterion met

Ask: Field: below-cutoff. Rule: recorded IC50 strictly less than 50 µM. Subject: `Cc1ccc(Cn2sc(=O)n(Cc3ccc(Cl)c(Cl)c3)c2=O)cc1`
Result: criterion not met
